Quick list: Ki per entry.
- systemTested: GST-tagged-Wee1 kinase (Homo sapiens)
- Construct: purchased Carnabio (Carna Biosciences) 05-177
- Sequence (P30291 whole entry): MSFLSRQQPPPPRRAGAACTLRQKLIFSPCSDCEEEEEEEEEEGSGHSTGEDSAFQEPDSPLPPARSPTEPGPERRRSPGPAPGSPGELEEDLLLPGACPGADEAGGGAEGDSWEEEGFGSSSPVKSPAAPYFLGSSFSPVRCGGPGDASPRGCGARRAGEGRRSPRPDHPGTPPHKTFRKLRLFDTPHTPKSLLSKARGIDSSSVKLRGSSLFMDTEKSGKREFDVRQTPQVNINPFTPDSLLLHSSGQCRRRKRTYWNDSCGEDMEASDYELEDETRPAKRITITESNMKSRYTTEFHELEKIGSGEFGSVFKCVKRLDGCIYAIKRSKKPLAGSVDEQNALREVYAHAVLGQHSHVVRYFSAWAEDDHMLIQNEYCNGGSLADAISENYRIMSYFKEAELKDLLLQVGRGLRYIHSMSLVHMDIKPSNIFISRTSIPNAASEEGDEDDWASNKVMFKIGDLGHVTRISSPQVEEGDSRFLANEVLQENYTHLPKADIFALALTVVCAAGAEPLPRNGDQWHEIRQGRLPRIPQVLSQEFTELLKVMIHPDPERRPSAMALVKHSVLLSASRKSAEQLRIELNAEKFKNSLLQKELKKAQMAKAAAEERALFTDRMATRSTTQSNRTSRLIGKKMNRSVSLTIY
- experimentalDetails: Wee1 time-resolved fluorescence equilibrium binding assay (displacement of Oregon Green-labeled ATP-competitive kinase probe)
- runParameters: read-out: Wee-1 inhibition (Ki)

Ki for O=c1c2cnc(Nc3ccc(N4CCN(C5COC5)CC4)cc3)nc2n2ccnc2n1-c1ccccc1Cl [Example 211] ?
10 to 100 nM

Consider the molecule CC(C)(C)C(=O)N1Cc2cc(Nc3ncc4c(=O)n(-c5c(Cl)cccc5Cl)c5nccn5c4n3)ccc2C2(CC2)C1 [Example 276] and give its measured Ki.
< 10 nM

I have this molecule here, CC1(C)CN(Cc2ccccc2C#N)Cc2cc(Nc3ncc4c(=O)n(-c5ccccc5Cl)c5nccn5c4n3)ccc21 [Example 356] , and I need its recorded Ki.
10 to 100 nM

Which Ki value is on record for CC(C)N1C(=O)CSC1c1ccc(Nc2ncc3c(=O)n(-c4ccccc4Cl)c4nccn4c3n2)cc1 (stereo not shown) [Example 219] ?
< 10 nM

Param item = O=c1c2cnc(Nc3ccc(N4CCN5CCC[C@@H]5C4)cc3)nc2n2ccnc2n1-c1c(F)cccc1Cl [Example 244] ; retrieve measured Ki.
< 10 nM

Which Ki is reported for this molecule? O=C1Nc2ccc(Nc3ncc4c(=O)n(-c5c(Cl)cccc5Cl)c5nccn5c4n3)cc2C[C@@H]2CNC[C@@H]12 [Example 179]
< 10 nM

Return reported Ki; argument: COc1cccc(-n2c(=O)c3cnc(Nc4ccccc4)nc3n3ccnc23)c1C [Example 344]
> 100 nM
